Test system: P. falciparum stage V gametocytes
Set-up: BacTiter-Glo ATP luminescence viability of purified stage V gametocytes in 384-well plates, per cent inhibition versus DMSO
protocol-conditions: 48 h, 5 µM; inhibitor
The whole screen tested about 13,000 compounds, of which about 3,200 (25%) showed an effect of 50% or more. The list shows a part of the results.
value-kind: % Inhibition (%)
Please respond with the number in % and leave the unit unwritten.

Example results:
N#Cc1cccc(C(=O)Nc2ccc(-c3nc4ccccc4[nH]3)cc2)c1 | 70.91
CCOc1cc(C(=O)Nc2ccc(-c3nc4ccccc4[nH]3)cc2)cc(OCC)c1OCC | -48.5
COc1cc(C(=O)Nc2cccc(-c3nc4ccccc4[nH]3)c2)cc(OC)c1OC | -4.164

q: Entry COc1ccc(C(=O)Nc2ccc(-c3nc4ccc(C)cc4[nH]3)cc2)cc1OC : reported % Inhibition = ?
a: 77.27
